Would you mind telling me the reported ELISA (A450) of each entry?
molecular target: HIV gp120 CAAN (HIV); test: single-point ELISA; also: test concentration or dose not given here
Answer by giving the amount and then stating its unit.

**Query** Tell me ELISA (A450) reported for 1.33.35-1 (antibody, human IgG1, kappa, V domains shown) VH: QVQLVQSGAEVKKPGASVRVSCKASGYNIRDYFIHWWRQAPGQGLQWVGWINPKTGQPNNPRQFQGRVTLTRHASWDFDTFSFYMDLKALRSDDTATYFCARQRSDYWDFDVWGSGTQVTVSS VL: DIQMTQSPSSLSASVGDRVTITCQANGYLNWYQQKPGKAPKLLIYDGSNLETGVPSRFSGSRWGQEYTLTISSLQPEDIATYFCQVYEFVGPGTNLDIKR
**Result** 0.81 A450

**Query** Supply ELISA (A450) value. Item: 1.12.17-1 (antibody, human IgG1, kappa, V domains shown) VH: QVQLLQSGAAVTKPGASVRVSCEASGYNIRDYFIHWVRQAPGQGLQWVGWINPKTGQPNNPRQFQGRVSLTRHASWDFDTFSFYMDLKALRSDDTAVYFCARQRSDYWDFDVWGSGTQVTVSS VL: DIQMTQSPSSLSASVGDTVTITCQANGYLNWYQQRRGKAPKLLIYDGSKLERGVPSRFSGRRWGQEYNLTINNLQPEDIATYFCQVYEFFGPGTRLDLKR
**Result** 0.84 A450
